// data source = paper PMC10523091

Property name: melting point

Compound	melting point
O=C1N(Cc2ccccc2)c2ccccc2C1(O)CN1CCCC1 (stereo not shown)	169 to 171 °C

**Q:** What value of melting point has been reported for the following compound? O=C1N(Cc2ccccc2)c2ccc(Cl)cc2C1(O)CN1CCOCC1 (stereo not shown)
**A:** 191 to 193 °C

---

Entries and their IC50 values follow.
Tested on: FHC
Assay text: MTS cell viability assay, non-cancerous FHC
Assay type: cell-based
Measurement setup: FHC, 48 h treatment, non-cancerous fetal human cells, read-out: IC50 (μM) ± SD FHC
Dear colleague, please return just the value in µM, with no unit written.

Some compounds with known IC50 results, for comparison:
Compound	Units text	Reported value
O=C1N(Cc2ccccc2)c2ccccc2C1(O)CN1CCOCC1 (stereo not shown)	µM	122
O=C1N(Cc2ccccc2)c2ccc(Cl)cc2C1(O)CN1CCCCC1 (stereo not shown)	µM	106
O=C1N(Cc2ccccc2)c2c(Br)cc(Br)cc2C1(O)CN1CCCC1 (stereo not shown)	µM	94.8
O=C1N(Cc2ccccc2)c2ccc(Cl)cc2C1(O)CN1CCOCC1 (stereo not shown)	µM	121
O=C1Nc2ccccc2C1(O)CN1CCOCC1 (stereo not shown)	µM	89.4
O=C1Nc2ccccc2C1(O)CN1CCCC1 (stereo not shown)	µM	95.7

**Q:** For the compound O=C1N(Cc2ccccc2)c2ccccc2C1(O)CN1CCCC1 (stereo not shown) , what IC50 is on record?
**A:** 76.3

**Q:** Which measured IC50 value corresponds to O=C1N(Cc2ccccc2)c2ccc(Br)cc2C1(O)CN1CCOCC1 (stereo not shown) ?
**A:** 73.2

**Q:** Given O=C1N(Cc2ccccc2)c2c(Br)cc(Br)cc2C1(O)CN1CCOCC1 (stereo not shown) , state its recorded IC50.
**A:** 20.6

**Q:** What value of IC50 has been reported for the following compound? O=C1N(Cc2ccccc2)c2ccccc2C1(O)CN1CCCCC1 (stereo not shown)
**A:** 63.5

**Q:** For the compound shown here, O=C1N(Cc2ccccc2)c2ccc(Cl)cc2C1(O)CN1CCCC1 (stereo not shown) , give the reported IC50.
**A:** 96.5

**Q:** Quick one: IC50 of O=c1[nH]cc(F)c(=O)[nH]1 [Compound 5-FU, 5-fluorouracil, reference compound] ?
**A:** 21.3

**Q:** Entry O=C1Nc2ccccc2C1(O)CN1CCCCC1 (stereo not shown) has what IC50?
**A:** 96.8
